The measurements presented in this section are drawn from PubChem BioAssay (NCI).

# System: MCF7 breast
# TEST_PROTOCOL: NCI-60 one-dose screen, 48 h
# TEST_SETTINGS: 10 µM unless noted
About 83,000 compounds went through this panel and 20% of them were active in at least one assay; those are over-represented in the sample as a whole. Active and inactive are the calls of the source. The calls were made as follows: active = growth percent below 10; inactive = the rest.
Would you mind answering with one of these outcomes? active, inactive

MOLECULE: CCC(=O)c1ccc(Cl)s1
ASSIGNED_CLASS: inactive

Which outcome did this test record for the molecule CC1=C(O)C(=O)C(C(C#N)(C#N)C(C#N)C#N)C1 (stereo not given) ?
inactive

Which outcome did this test record for the molecule Cc1nc2c3c(-c4ccccc4)c(-c4ccccc4)oc3ncn2n1 ?
inactive

Which outcome did this test record for the molecule CC1=C[C@H]2c3c(c(O)c(O)c4oc(-c5ccccc5)cc(=O)c34)[C@H](c3cc(O)c(O)c4oc(-c5ccccc5)cc(=O)c34)[C@H]2C(C)(C)C1 ?
active

Which outcome did this test record for the molecule COc1cc(-c2nn(-c3ccc(C)cc3)cc2C(=O)O)ccc1O ?
inactive
